A collection of binders and their measured pKd
Target: Pin1 (Example 6, construct not stated) (human) (UniProt Q13526)
Assay: fluorescence anisotropy
Starred links: 1 amine or outer side, 2 acyl side, 3 side chain; linkers in the order of their positions; H or OH if unused. Non-standard residues stand in square brackets, D forms with d. Primed or numbered codes have the meaning given here. No end group written: not given here. Trimesoyl = O=C(c1cc(C(=O)[*:2])cc(C(=O)[*:3])c1)[*:1]; Phe(4-F) = N[C@@H](Cc1ccc(F)cc1)C(=O)O; dPhe(4-F) = N[C@H](Cc1ccc(F)cc1)C(=O)O; 2Nal = N[C@@H](Cc1ccc2ccccc2c1)C(=O)O; Pip′ = L-homoproline (pipecolyl); Dap = NC[C@H](N)C(=O)O; Sar = CNCC(=O)O
Reminder that pKd means the negative base-10 logarithm of the concentration expressed in mol/L.

As a guide, the following entries are already answered.
Trimesoyl-P[Sar][dD][Pip′][2Nal]RD[dA][Dap]F[2Nal]RRRR[Dap]K-NH2 (linker (positions not given here) via Trimesoyl; not fully specified (some residues, bridges); printed as bicyclo[Tm-(Pro-Sar-D-Asp-Pip-Nal-Arg-Asp-D-Ala)-Dap-(Phe-Nal-Arg-Arg-Arg-Arg-Dap)]-Lys) [peptide 20 (Table 18)] : 5.50
Trimesoyl-[dPhe(4-F)][Phe(4-F)][dT][Pip′][2Nal]RA[dF][Dap]F[2Nal]RRRR[Dap]K (linker (positions not given here) via Trimesoyl; not fully specified (bridges); printed as bicyclo[Tm-(D-4-Fpa-Fpa-D-Thr-Pip-Nal-Arg-Ala-D-Phe)-Dap-(Phe-Nal-Arg-Arg-Arg-Arg-Dap)]-Lys) [peptide 37 (Table 18)] : 6.92

Qu. Looking for the measured pKd of Trimesoyl-P[Sar][dD][Pip′][2Nal]RR[dA][Dap]F[2Nal]RRRR[Dap]K-NH2 (linker (positions not given here) via Trimesoyl; not fully specified (some residues, bridges); printed as bicyclo[Tm-(Pro-Sar-D-Asp-Pip-Nal-Arg-Arg-D-Ala)-Dap-(Phe-Nal-Arg-Arg-Arg-Arg-Dap)]-Lys) [peptide 19 (Table 18)] , can you help?
Ans. 6.14
